# measured_on: Estrogen receptor (Homo sapiens, UniProt P03372)
# Sequence (P03372 whole entry): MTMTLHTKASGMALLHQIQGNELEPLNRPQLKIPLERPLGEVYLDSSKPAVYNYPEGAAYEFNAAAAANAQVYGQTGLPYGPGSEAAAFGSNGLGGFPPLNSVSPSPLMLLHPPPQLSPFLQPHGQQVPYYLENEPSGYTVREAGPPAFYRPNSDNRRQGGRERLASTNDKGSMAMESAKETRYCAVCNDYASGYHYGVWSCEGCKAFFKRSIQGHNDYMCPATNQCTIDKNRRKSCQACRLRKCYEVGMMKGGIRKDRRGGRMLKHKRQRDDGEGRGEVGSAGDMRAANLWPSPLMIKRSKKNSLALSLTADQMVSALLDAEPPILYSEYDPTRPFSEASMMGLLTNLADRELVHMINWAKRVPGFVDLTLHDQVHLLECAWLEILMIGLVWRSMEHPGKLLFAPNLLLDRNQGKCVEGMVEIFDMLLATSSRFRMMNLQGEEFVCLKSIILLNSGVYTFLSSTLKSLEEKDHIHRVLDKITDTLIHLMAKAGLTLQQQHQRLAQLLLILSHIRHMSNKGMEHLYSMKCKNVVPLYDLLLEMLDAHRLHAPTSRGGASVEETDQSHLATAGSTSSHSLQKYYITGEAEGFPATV
value_kind: IC50 (nM)
Only the number, expressed in nM, is required.

Solved cases (2 shown):
[
  {
    "smiles_code": "CCCCN(C)C(=O)CCCCCCCCCCS[C@@H]1C(=O)c2cc(O)ccc2[C@H]2CC[C@]3(C)[C@@H](O)CC[C@H]3[C@H]12",
    "unit_descriptor": "nM",
    "IC50": 519
  },
  {
    "smiles_code": "CCCCN(C)C(=O)CCCCCCCCCCS[C@@H]1Cc2cc(O)ccc2[C@H]2CC[C@]3(C)[C@@H](O)CC[C@H]3[C@@H]21",
    "unit_descriptor": "nM",
    "IC50": 3.5
  }
]

--- query ---
Form: Entry = CCCCN(C)C(=O)CCCCCCCCCCS[C@H]1[C@@H]2[C@H](CC[C@]3(C)[C@@H](O)CC[C@@H]23)c2ccc(O)cc2[C@H]1O | System = Estrogen receptor (Homo sapiens, UniProt P03372) | IC50 = ____
316

---

# measured_on: Estrogen receptor (Homo sapiens, UniProt P03372)
value_kind: IC50 (nM)
Only the number, expressed in nM, is required.

Form: Entry = CCCCN(C)C(=O)CCCCCCCCCCS[C@H]1[C@@H]2[C@H](CC[C@]3(C)[C@@H](O)CC[C@@H]23)c2ccc(O)cc2[C@H]1O | System = Estrogen receptor (Homo sapiens, UniProt P03372) | IC50 = ____
32

Form: Entry = CCCCN(C)C(=O)CCCCCCCCCCS[C@@H]1C(=O)c2cc(O)ccc2[C@H]2CC[C@]3(C)[C@@H](O)CC[C@H]3[C@H]12 | System = Estrogen receptor (Homo sapiens, UniProt P03372) | IC50 = ____
33

Form: Entry = C[C@]12CC[C@@H]3c4ccc(O)cc4C[C@@H](Sc4ccc(/C=C/C(=O)O)cc4)[C@H]3[C@@H]1CC[C@@H]2O | System = Estrogen receptor (Homo sapiens, UniProt P03372) | IC50 = ____
46

Form: Entry = CCCCN(C)C(=O)CCCCCCCCCCS[C@@H]1Cc2cc(O)ccc2[C@H]2CC[C@]3(C)[C@@H](O)CC[C@H]3[C@@H]21 | System = Estrogen receptor (Homo sapiens, UniProt P03372) | IC50 = ____
9

Form: Entry = C[C@]12CC[C@@H]3c4ccc(O)cc4C(O)[C@@H](Sc4ccc(Br)cc4)[C@H]3[C@@H]1CC[C@@H]2O (stereo partly specified) | System = Estrogen receptor (Homo sapiens, UniProt P03372) | IC50 = ____
397

Form: Entry = CN(C)C(=O)/C=C/c1ccc(S[C@@H]2Cc3cc(O)ccc3[C@H]3CC[C@]4(C)[C@@H](O)CC[C@H]4[C@@H]32)cc1 | System = Estrogen receptor (Homo sapiens, UniProt P03372) | IC50 = ____
94

---

As an illustration, consider measured pEC50 for molecules on Estrogen receptor (Homo sapiens, UniProt P03372).
The read-out pEC50 is expressed as -log10 of concentration in moles per litre.

Solved cases (4 shown):
[
  {
    "molecule": "CCCCN(C)C(=O)CCCCCCCCCCS[C@H]1[C@@H]2[C@H](CC[C@]3(C)[C@@H](O)CC[C@@H]23)c2ccc(O)cc2[C@H]1O",
    "pEC50": 7.40
  },
  {
    "molecule": "CN(C)C(=O)/C=C/c1ccc(S[C@@H]2Cc3cc(O)ccc3[C@H]3CC[C@]4(C)[C@@H](O)CC[C@H]4[C@@H]32)cc1",
    "pEC50": 6.76
  },
  {
    "molecule": "CCCCN(C)C(=O)CCCCCCCCCCS[C@@H]1C(=O)c2cc(O)ccc2[C@H]2CC[C@]3(C)[C@@H](O)CC[C@H]3[C@H]12",
    "pEC50": 7.55
  },
  {
    "molecule": "C[C@]12CC[C@@H]3c4ccc(O)cc4C[C@@H](Sc4ccc(/C=C/C(=O)O)cc4)[C@H]3[C@@H]1CC[C@@H]2O",
    "pEC50": 7.89
  }
]

--- query ---
Form: Entry = C[C@]12CC[C@@H]3c4ccc(O)cc4C(O)[C@@H](Sc4ccc(Br)cc4)[C@H]3[C@@H]1CC[C@@H]2O (stereo not given in full) | System = Estrogen receptor (Homo sapiens, UniProt P03372) | pEC50 = ____
8.15
